System: Human Pan T cells
Measurement protocol: IL-2 Release Detection Assay
Type: cell-based
Stated conditions: Top activation/DMSO control
Endpoint: Activation fold

Query: Provide value of Activation fold for this record tested with Human Pan T cells: Cc1ccc2oc(C3CCN(c4cc(=O)n(C)c5cc(NCCO)c(C#N)nc45)CC3)nc2c1
Reply: 6.9

Query: Query Cc1ccc2oc(C3CCN(c4nc(=O)n(C)c5ccc(Cl)cc45)CC3)nc2c1 next
Reply: 3.5

Query: Query Cc1ccc2oc(C3CCN(c4c(C#N)c(=O)n(C)c5ccc(Cl)nc45)CC3)nc2c1 next
Reply: 7.7

Query: Query Cc1ccc2oc(C3CCN(c4cc(=O)n(C)c5ccc(C#N)cc45)CC3)nc2c1 next
Reply: 7.8

Query: Query Cc1ccc2oc(C3CCN(c4cc(=O)n(C)c5cc(NCCO)c(Cl)nc45)CC3)nc2c1 next
Reply: 8.2

Query: Query Cc1ccc2oc(C3CCN(c4cc(=O)n(C)c5ccc(Cl)cc45)CC3)nc2c1 next
Reply: 5.3

Query: Query Cn1c(=O)cc(N2CCC(c3nc4cc(F)ccc4o3)CC2)c2nc(Cl)ccc21 next
Reply: 6.1

Query: Query Cc1ccc2oc(C3CCN(c4cc(=O)n(C)c5ccc(Cl)nc45)CC3)nc2c1 next
Reply: 7.3

###

Entries annotated with measured AUC(0-t)
Measurement protocol: Pharmacokinetic Profile Evaluation (mouse PK)
Format: in vivo, CD-1 mice
Stated conditions: CD-1, plasma, oral administration at 5 mg/kg
Give just the numeric value; ng·h/mL need not be written.

>>> quantitative_result("Cc1ccc2oc(C3CCN(c4cc(=O)n(C)c5cc(O[C@@H]6CCOC6)c(C#N)nc45)CC3)nc2c1")
3410
>>> quantitative_result("Cc1ccc2oc(C3CCN(c4cc(=O)n(C)c5cc(OCCO)c(C#N)nc45)CC3)nc2c1")
12000
>>> quantitative_result("Cc1ccc2oc(C3CCN(c4cc(=O)n(C)c5ccc(C#N)nc45)CC3)nc2c1")
5980

// below: AUC(0-t) requested for another compound
Query: Given the compound Cn1c(=O)cc(N2CCC(c3nc4cc(F)ccc4o3)CC2)c2nc(C#N)ccc21 , what is its reported AUC(0-t)?
Reply: 5460

###

Entries annotated with measured pIC50
System under test: UniProt:P23743
Sequence (P23743 whole entry): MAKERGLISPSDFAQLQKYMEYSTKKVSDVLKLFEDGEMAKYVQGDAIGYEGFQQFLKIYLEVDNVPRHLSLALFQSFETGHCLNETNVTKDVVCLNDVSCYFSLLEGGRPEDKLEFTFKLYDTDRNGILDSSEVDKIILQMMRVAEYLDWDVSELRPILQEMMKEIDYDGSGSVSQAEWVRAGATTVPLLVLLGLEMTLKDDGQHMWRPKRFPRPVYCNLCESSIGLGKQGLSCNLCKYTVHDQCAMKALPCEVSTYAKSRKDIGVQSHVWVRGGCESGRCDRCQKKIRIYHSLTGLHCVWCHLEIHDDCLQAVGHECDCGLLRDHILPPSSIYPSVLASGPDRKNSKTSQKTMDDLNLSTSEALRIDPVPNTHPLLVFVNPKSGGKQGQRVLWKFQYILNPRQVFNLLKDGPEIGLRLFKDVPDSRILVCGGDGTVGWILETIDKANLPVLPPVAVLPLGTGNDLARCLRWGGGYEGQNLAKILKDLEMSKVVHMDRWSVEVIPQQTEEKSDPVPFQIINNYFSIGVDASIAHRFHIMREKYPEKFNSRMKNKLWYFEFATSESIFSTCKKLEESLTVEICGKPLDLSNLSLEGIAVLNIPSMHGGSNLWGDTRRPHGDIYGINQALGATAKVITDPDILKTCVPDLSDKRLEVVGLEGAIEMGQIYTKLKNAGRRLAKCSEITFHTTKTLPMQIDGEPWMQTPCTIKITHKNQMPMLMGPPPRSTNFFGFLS
Reminder that pIC50 is minus the log10 of a molar concentration.

Use these answered entries as a reference point.
>>> quantitative_result("Cc1ccc2oc(C3CCN(c4nc(=O)n(C)c5ccc(C#N)cc45)CC3)nc2c1 [Example 5]")
6.99
>>> quantitative_result("Cc1ccc2oc(C3CCN(c4cc(=O)n(C)c5cc(OCCCO)c(C#N)nc45)CC3)nc2c1 [Example 24]")
9.51
>>> quantitative_result("Cc1ccc2oc(C3CCN(c4cc(=O)n(C)c5ccc(C#N)nc45)CC3)nc2c1 [Example 1]")
8.70
>>> quantitative_result("Cc1ccc2oc(C3CCN(c4cc(=O)n(C)c5ccc(Cl)cc45)CC3)nc2c1 [Example 2]")
9.33
>>> quantitative_result("Cc1ccc2oc(C3CCN(c4c(C#N)c(=O)n(C)c5ccc(Cl)nc45)CC3)nc2c1 [Example 9]")
8.69
>>> quantitative_result("Cc1ccc2oc(C3CCN(c4cc(=O)n(C)c5ccc(Cl)nc45)CC3)nc2c1 [Example 10]")
9.44
>>> quantitative_result("Cn1c(=O)cc(N2CCC(c3nc4cc(F)ccc4o3)CC2)c2nc(Cl)ccc21 [Example 11]")
9.18
>>> quantitative_result("Cc1ccc2oc(C3CCN(c4cc(=O)n(C)c5cc(O[C@H]6CCOC6)c(C#N)nc45)CC3)nc2c1 [Example 29]")
9.15

Query: Given the molecule Cc1ccc2oc(C3CCN(c4cc(=O)n(C)c5cc(NCCO)c(C#N)nc45)CC3)nc2c1 [Example 18] , what is its reported pIC50?
Reply: 10.00

Query: Query Cc1ccc2oc(C3CCN(c4cc(=O)n(C)c5cc(O[C@@H]6CCOC6)c(C#N)nc45)CC3)nc2c1 [Example 28] next
Reply: 9.85
